All figures here come from patent US20220324865A1.

EXPERIMENTAL SYSTEM: human EP3 receptor (Homo sapiens)
Sequence (P43115 1-390): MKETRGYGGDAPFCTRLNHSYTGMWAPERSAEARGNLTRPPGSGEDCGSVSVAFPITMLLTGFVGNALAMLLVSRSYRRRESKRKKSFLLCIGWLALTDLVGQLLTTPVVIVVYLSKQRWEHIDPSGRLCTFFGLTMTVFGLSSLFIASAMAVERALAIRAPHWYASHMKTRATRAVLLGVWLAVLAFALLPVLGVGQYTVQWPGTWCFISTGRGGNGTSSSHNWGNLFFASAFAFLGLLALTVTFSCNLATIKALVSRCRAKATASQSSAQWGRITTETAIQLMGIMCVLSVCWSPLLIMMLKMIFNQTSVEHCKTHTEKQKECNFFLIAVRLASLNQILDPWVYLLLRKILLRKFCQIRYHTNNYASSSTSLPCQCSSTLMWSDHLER
PROCEDURE TEXT: Cellular in vitro assay for determining EP3 receptor activity (human EP3 cell line, sulprostone-stimulated calcium luminescence)
SETUP CONDITIONS: CHO cells expressing human EP3 and mitochondrial Clytin; antagonist mode, sulprostone at EC50; read-out: EP3 CHO mtCLY ANTAG IC50
pIC50: −log10 of the molar value.
PROPERTY: pIC50

COCc1c(C(=O)N[C@@H](c2ccc(F)cc2)C(C)(C)O)nn2cc(-c3ccc(C)c(Cl)c3)[nH]c(=O)c12 [6-627] = 9.24
O=C(NCC(O)C(F)(F)F)c1nn2cc(-c3ccc(Cl)c(Cl)c3)[nH]c(=O)c2c1C1CC1 (single isomer, unassigned) [6-416] = 8.55
Cc1cccc2ncc(-c3cn4nc(C(=O)N[C@H]5CC[C@H](O)CC5)c(C(C)C)c4c(=O)[nH]3)cc12 [Example 4-32] = 8.19
Cc1ccc(-c2cn3nc(C(=O)N[C@@H](C)C4CC4)c(C(F)(F)F)c3c(=O)[nH]2)cc1C [6-119] = 8.96
Cc1ccc(-c2cn3nc(C(=O)NCC(O)C(F)(F)F)c(C4CC4)c3c(=O)[nH]2)cc1Cl (racemic) [6-258] = 9.09
COc1ccc(C(CCO)NC(=O)c2nn3c(C)c(-c4ccc5ccccc5c4)[nH]c(=O)c3c2C)cc1 (stereo not shown) [Example 3-37] = 8.62
O=C(NCCc1ccccc1F)c1cc2c(=O)[nH]c(-c3ccc4ccccc4c3)cn2n1 [Example 2-9] = 8.44

----------
EXPERIMENTAL SYSTEM: human EP3 receptor (Homo sapiens, UniProt P43115)
Sequence (P43115 1-390): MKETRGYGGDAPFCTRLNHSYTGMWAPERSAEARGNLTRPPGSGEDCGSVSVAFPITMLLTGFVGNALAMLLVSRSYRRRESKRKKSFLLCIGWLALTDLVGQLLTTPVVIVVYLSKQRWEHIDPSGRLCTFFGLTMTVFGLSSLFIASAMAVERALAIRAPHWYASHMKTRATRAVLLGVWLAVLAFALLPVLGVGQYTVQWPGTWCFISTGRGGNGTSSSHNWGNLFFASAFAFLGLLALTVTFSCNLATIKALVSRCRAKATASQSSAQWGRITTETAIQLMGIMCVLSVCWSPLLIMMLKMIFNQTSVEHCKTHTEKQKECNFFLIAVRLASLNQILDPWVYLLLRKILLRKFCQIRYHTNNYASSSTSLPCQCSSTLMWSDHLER
PROCEDURE TEXT: Cellular in vitro assay for determining EP3 receptor activity (human EP3 cell line, sulprostone-stimulated calcium luminescence)
SETUP CONDITIONS: CHO cells expressing human EP3 and mitochondrial Clytin; antagonist mode, sulprostone at EC50; read-out: EP3 CHO mtCLY ANTAG IC50
pIC50: −log10 of the molar value. Where a name gives a salt, the structure may show the parent alone.
Reported pIC50 values for a set of compounds
PROPERTY: pIC50

Cc1ccc(-c2cn3nc(C(=O)NCC(O)(C(F)(F)F)C(F)(F)F)c(C4CC4)c3c(=O)[nH]2)cc1C = 8.71
Cc1cc(-c2cn3nc(C(=O)N[C@H](C)c4ccc(F)cc4)c(C4CC4)c3c(=O)[nH]2)ccc1C(F)(F)F = 8.26
Cc1ccc(-c2cn3nc(C(=O)N[C@H](CCO)c4ccc(F)cc4)c(Cl)c3c(=O)[nH]2)cc1C = 9.35
Cc1c(C(=O)NC(CO)c2cc(Cl)cc(Cl)c2)nn2c(C)c(-c3ccc4ccccc4c3)[nH]c(=O)c12 (centres unmarked) = 8.12
Cc1c(C(=O)NC2(c3ccc(F)cc3)CN(C)C2)nn2cc(-c3ccc4ccccc4c3)[nH]c(=O)c12 [Example 1-34, formic acid salt] = 8.38
Cc1ccc(-c2cn3nc(C(=O)N[C@@H](C)C4CC4)c(C4CC4)c3c(=O)[nH]2)cc1C = 9.00
COc1ccc(CNC(=O)c2cc3c(=O)[nH]c(-c4ccc(C)c(Cl)c4)c(C)n3n2)cc1OC = 8.11
Cc1cccc2ncc(-c3cn4nc(C(=O)NCc5ccccn5)c(C(C)C)c4c(=O)[nH]3)cc12 = 8.56
Cc1ccc(-c2cn3nc(C(=O)N[C@@H](c4ccc(F)cc4)C(F)(F)CO)c(C4CC4)c3c(=O)[nH]2)cc1Cl = 8.96
Cc1cccc2ncc(-c3cn4nc(C(=O)N[C@H](CCO)c5ccc(F)cc5)cc4c(=O)[nH]3)cc12 = 8.42
CCN1CC(NC(=O)c2nn3cc(-c4ccc5ccccc5c4)[nH]c(=O)c3c2C(F)(F)F)(c2ccc(F)cc2)C1 = 8.29
O=C(N[C@H](CCO)c1ccc(F)cc1)c1nn2cc(-c3cccc(Cl)c3)[nH]c(=O)c2c1C1CC1 = 8.96
CC[C@@H](C)NC(=O)c1nn2cc(-c3ccc(Cl)c(C)c3)[nH]c(=O)c2c1C1CC1 = 8.70
COc1ccc(C2(NC(=O)c3cc4c(=O)[nH]c(-c5ccc6ccccc6c5)cn4n3)CN(C)C2)cc1 [Example 1-59, formic acid salt] = 8.23

----------
Reported pIC50 values for a set of compounds
EXPERIMENTAL SYSTEM: human EP3 receptor (Homo sapiens)
PROCEDURE TEXT: Cellular in vitro assay for determining EP3 receptor activity (human EP3 cell line, sulprostone-stimulated calcium luminescence)
SETUP CONDITIONS: CHO cells expressing human EP3 and mitochondrial Clytin; antagonist mode, sulprostone at EC50; read-out: EP3 CHO mtCLY ANTAG IC50
pIC50: −log10 of the molar value.
PROPERTY: pIC50

Cc1ccc(-c2cn3nc(C(=O)NCCN(C)C4CC4)c(C4CC4)c3c(=O)[nH]2)cc1F = 8.47
CN1CC(NC(=O)c2nn3cc(-c4ccc(Cl)cc4)[nH]c(=O)c3c2C2CC2)(c2ccc(F)cc2)C1 = 8.48
CCN1CC(NC(=O)c2nn3cc(-c4ccc(C)c(C)c4)[nH]c(=O)c3c2C(F)(F)F)(c2ccc(F)cc2)C1 = 8.78
CC[C@@H](C)NC(=O)c1nn2cc(-c3ccc(C)c(Cl)c3)[nH]c(=O)c2c1C(F)(F)F = 8.68
Cc1cccc2ncc(-c3cn4nc(C(=O)N[C@@H](C)c5cnccn5)c(C(C)C)c4c(=O)[nH]3)cc12 = 8.67
CCn1nccc1C(C)NC(=O)c1nn2c(C)c(-c3ccc4ccccc4c3)[nH]c(=O)c2c1C (centres unmarked) = 8.76
Cc1cccc2ncc(-c3cn4nc(C(=O)NC(CN5CCCC5)c5ccccc5)c(C(C)C)c4c(=O)[nH]3)cc12 (centres unmarked) = 8.02
CCN1CCC(NC(=O)c2nn3cc(-c4ccc(C)c(F)c4)[nH]c(=O)c3c2C2CC2)(C(F)(F)F)C1 (single isomer, unassigned) [6-406] = 7.63
Cc1ccc(-c2cn3nc(C(=O)NC(C)(C)C4CC4)c(C(F)(F)F)c3c(=O)[nH]2)cc1Cl = 9.01
CC(C)c1c(C(=O)N[C@H](C)C2CC2)nn2cc(-c3ccc(Cl)c(F)c3)[nH]c(=O)c12 = 9.07
Cc1ccc(-c2cn3nc(C(=O)N[C@H]4c5ccccc5C[C@H]4O)c(C(F)(F)F)c3c(=O)[nH]2)cc1Cl = 8.63
Cc1ccc(-c2cn3nc(C(=O)N[C@H](C)C4CC4)c(C(F)(F)F)c3c(=O)[nH]2)cc1Cl = 8.77
Cc1cccc2ncc(-c3cn4nc(C(=O)NCc5cnn(C)c5)c(C(C)C)c4c(=O)[nH]3)cc12 = 8.70
CC[C@@H](C)NC(=O)c1nn2cc(-c3ccc4ccccc4c3)[nH]c(=O)c2c1C(F)(F)F = 9.23
Cc1nn(C(C)CNC(=O)c2cc3c(=O)[nH]c(-c4ccc5ccccc5c4)cn3n2)c(C)c1Cl (centres unmarked) = 8.53
O=C(NCC(O)C(F)(F)F)c1nn2cc(-c3ccc4c(c3)OCCO4)[nH]c(=O)c2c1C(F)(F)F (single isomer, unassigned) [6-532] = 8.05
Cc1cc(-c2cn3nc(C(=O)N[C@@H](c4ccc(F)cc4)C(F)(F)CO)c(C4CCC4)c3c(=O)[nH]2)ccc1Cl = 8.94
Cn1cnc2cc(-c3cn4nc(C(=O)N[C@@H](c5ccc(F)cc5)C(C)(C)O)c(C(F)(F)F)c4c(=O)[nH]3)ccc21 = 8.07
CC[C@@H](C)NC(=O)c1nn2cc(-c3ccc(C)c(C)c3)[nH]c(=O)c2c1C1CC1 = 8.94
Cc1c(C(=O)NCCn2ccc(C3CC3)n2)nn2c(C)c(-c3ccc4ccccc4c3)[nH]c(=O)c12 = 9.10
CC(C)(O)[C@@H](NC(=O)c1nn2cc(-c3ccc(Cl)c(F)c3)[nH]c(=O)c2c1C(F)(F)F)c1ccc(F)cc1 = 8.00
Cc1ccc(-c2cn3nc(C(=O)NCCN(CC(F)F)C4CC4)c(C(F)(F)F)c3c(=O)[nH]2)cc1Cl = 8.32
CC(C)c1c(C(=O)N[C@@H](c2ccc(F)cc2)C(C)(C)O)nn2cc(-c3ccc(Cl)cc3)[nH]c(=O)c12 = 8.77
CCn1ccc(C(C)NC(=O)c2cc3c(=O)[nH]c(-c4ccc5ccccc5c4)cn3n2)n1 (centres unmarked) = 8.15
Cc1c(C(=O)NC(C)c2ccc3c(c2)OCCO3)nn2c(C)c(-c3ccc4ccccc4c3)[nH]c(=O)c12 (centres unmarked) = 8.35
COC[C@@H](NC(=O)c1nn2cc(-c3ccc(C)c(Cl)c3)[nH]c(=O)c2c1C(F)(F)F)c1ccccc1 = 9.17
Cc1cnn(CC(C)NC(=O)c2cc3c(=O)[nH]c(-c4ccc5ccccc5c4)cn3n2)c1 (centres unmarked) = 8.14
Cc1cc(-c2cn3nc(C(=O)NC(c4ccc(F)cc4)C(C)(C)O)c(C4CC4)c3c(=O)[nH]2)ccc1C(F)(F)F (racemic) = 8.30
Cc1cc(-c2cn3nc(C(=O)N[C@@H](c4ccc(F)cc4)C(C)(C)O)c(C4CCC4)c3c(=O)[nH]2)ccc1Cl = 8.82
